- system.tested: JAK3 (Homo sapiens)
- Sequence (P52333 795-1124 limits assumed): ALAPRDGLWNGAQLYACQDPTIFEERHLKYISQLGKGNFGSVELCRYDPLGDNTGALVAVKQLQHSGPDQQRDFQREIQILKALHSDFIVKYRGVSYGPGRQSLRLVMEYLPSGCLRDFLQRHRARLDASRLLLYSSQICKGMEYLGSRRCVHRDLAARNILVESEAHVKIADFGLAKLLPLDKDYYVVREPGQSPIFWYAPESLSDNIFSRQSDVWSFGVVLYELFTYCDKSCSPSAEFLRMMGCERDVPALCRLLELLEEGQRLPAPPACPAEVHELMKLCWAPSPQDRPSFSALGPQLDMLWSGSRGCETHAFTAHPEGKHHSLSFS
- measurement.protocol: JAK3 kinase ADP-Glo assay (Example 60)
endpoint: IC50 (nM)

P: CCc1cc(O)c(F)cc1-c1cc(C)c2c(-c3nc4c([nH]3)CN(C(=O)C3CC3)C4)n[nH]c2c1
Q: CCc1cc(O)c(F)cc1-c1ccc2c(-c3nc4c([nH]3)CN(C3CCCC3)C4)n[nH]c2c1
Input: Short answer wanted: higher IC50, P or Q ? Write down the label of the entry you select.
Output: P

a: CCc1cc(O)c(F)cc1-c1ccc2c(-c3nc4c([nH]3)CN(C(=O)N3CC[C@H](O)C3)C4)n[nH]c2c1
b: CCc1cc(O)c(F)cc1-c1ccc2c(-c3nc4c([nH]3)CN(C(=O)[C@H]3CCCN3)C4)n[nH]c2c1
Input: Short answer wanted: higher IC50, a or b ? Write down the label of the entry you select.
Output: b
(b: 0.458 nM, a: 0.247 nM)
